Values compiled from paper PMC9356065.

Listed here: items and their measured inhibition at 50 µg/mL.
Test system: T47-D
protocol: MTT cytotoxicity, 48 h, without UVA
Assay type: cell-based, human
condition.label: Homo sapiens, T47D, light or radiation study; 48 h; without UVA; I = %inhibition lower than 50%; read-out: Cytotoxic activity T47-D %Inhibition
State the answer as a number, implicitly in %.

CCC(=O)Nc1c2ccoc2c(OC)c2oc(=O)ccc12 ... 22

Shifting focus to the compound that follows.
Form field inhibition at 50 µg/mL, entry CCCCCC(=O)N(C(=O)CCCCC)c1c2ccoc2c(OC)c2oc(=O)ccc12 : 15

---

protocol: Scavenging of diphenyl-picryl-hydrazyl radicals (DPPH)
condition.label: screening concentration 250 µM
Listing of entries alongside the reported DPPH %Inh.

Examples with their reported DPPH %Inh follow.
COc1c2occc2c(N)c2ccc(=O)oc12 [compound 2] ... 23%
COc1c2occc2c(NC(C)=O)c2ccc(=O)oc12 [3i] ... 1%
COc1c2occc2c(NC(=O)c2cccc([N+](=O)[O-])c2)c2ccc(=O)oc12 [3f] ... 1%

// DPPH %Inh lookup, molecule = COc1c2occc2c(NC(=O)C23CC4CC(CC(C4)C2)C3)c2ccc(=O)oc12 [3n] , result: 1%

DPPH %Inh reported for this molecule COc1c2occc2c(NS(=O)(=O)c2ccccc2)c2ccc(=O)oc12 [compound 5] : 8%

---

protocol: Inhibition of superoxide radical formation by xanthine/xanthine oxidase (XXO)
Assay type: biochemical
condition.label: read-out: XXO IC50
Description: 1. […]
outcome.measure: IC50 (µM)
Quick reminder: number only, in µM, skip the unit.

Field: example entries. Status: answers known.
CCC(=O)Nc1c2ccoc2c(OC)c2oc(=O)ccc12 [3j] ... 187
COc1c2occc2c(NC(=O)C(C)C)c2ccc(=O)oc12 [3k] ... 394

Below: the item to evaluate.
// field: IC50; key: COc1c2occc2c(NS(=O)(=O)c2ccccc2)c2ccc(=O)oc12 [compound 5] ; value = 90.7

---

target.under.test: aromatase (CYP19) (Homo sapiens)
Sequence (P11511 whole entry): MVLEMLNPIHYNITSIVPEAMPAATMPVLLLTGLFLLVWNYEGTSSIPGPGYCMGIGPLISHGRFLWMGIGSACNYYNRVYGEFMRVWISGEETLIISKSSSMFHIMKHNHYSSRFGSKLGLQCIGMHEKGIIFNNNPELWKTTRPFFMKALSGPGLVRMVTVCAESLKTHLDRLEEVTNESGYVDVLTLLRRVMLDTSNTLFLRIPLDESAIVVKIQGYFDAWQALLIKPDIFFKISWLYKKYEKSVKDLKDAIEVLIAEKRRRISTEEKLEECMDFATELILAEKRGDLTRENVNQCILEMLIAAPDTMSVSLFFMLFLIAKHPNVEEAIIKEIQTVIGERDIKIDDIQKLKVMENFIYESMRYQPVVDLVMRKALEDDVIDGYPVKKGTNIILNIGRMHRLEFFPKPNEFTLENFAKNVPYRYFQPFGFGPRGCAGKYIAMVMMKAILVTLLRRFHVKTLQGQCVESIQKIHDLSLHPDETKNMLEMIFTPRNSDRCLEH
protocol: Inhibition of aromatase (AIA)
Assay type: biochemical
condition.label: at 12.5 µM; I = %inhibition lower than 50%; read-out: Aromatase inhibitory activity %Inhibition
Listing: inhibition at 12.5 µM of selected compounds
API: value field is a number in %; no unit string.

// field: inhibition at 12.5 µM; key: COc1c2occc2c(NC(=O)c2cccs2)c2ccc(=O)oc12 [3h] ; value = 8

The recorded inhibition at 12.5 µM for entry COc1c2occc2c(NC(C)=O)c2ccc(=O)oc12 [3i] equals 7

Lookup result for COc1c2occc2c(NCc2ccccc2)c2ccc(=O)oc12 [4a] ; measured inhibition at 12.5 µM: 46

The reported value for COc1c2occc2c(NC(=O)C23CC4CC(CC(C4)C2)C3)c2ccc(=O)oc12 [3n] in terms of inhibition at 12.5 µM is 5

get_value(item= COc1c2occc2c(NC(=O)c2ccc(Br)cc2)c2ccc(=O)oc12 [3c] , readout=inhibition at 12.5 µM) returns 13

// inhibition at 12.5 µM lookup, compound = COc1c2occc2c(NC(=O)c2ccccc2)c2ccc(=O)oc12 [3a] , result: 3

Memo: COc1ccc(C(=O)Nc2c3ccoc3c(OC)c3oc(=O)ccc23)cc1 [3e] , reported inhibition at 12.5 µM: 15

Lookup result for COc1c2occc2c(N)c2ccc(=O)oc12 [compound 2] ; measured inhibition at 12.5 µM: 9
